Entries annotated with measured ELISA Absorbance (405 nm-570 nm)
Target: T1, SELL (L-Selectin)
T1 construct: coated protein in the ELISA; also called SELL-Fc-His (R&D Systems)
T1 chain: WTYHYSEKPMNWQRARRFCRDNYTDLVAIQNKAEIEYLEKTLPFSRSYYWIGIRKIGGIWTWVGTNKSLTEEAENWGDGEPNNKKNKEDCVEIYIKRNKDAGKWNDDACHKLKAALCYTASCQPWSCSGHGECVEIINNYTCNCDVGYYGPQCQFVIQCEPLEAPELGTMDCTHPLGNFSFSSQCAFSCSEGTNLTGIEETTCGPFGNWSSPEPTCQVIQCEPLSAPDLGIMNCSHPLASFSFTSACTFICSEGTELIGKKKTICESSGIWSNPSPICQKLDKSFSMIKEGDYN
Assay: ELISA on coated SELL-Fc-His, 150 ng IgG1; None 0.096
Enter a number only.

Below are worked cases with known answers.
{"columns": ["Binder", "Measured number"],
 "data": [
  ["HW-113 chimeric rabbit-human IgG1 LA/LA/PG (antibody, V domains shown, Fc-silenced (L234A/L235A/P329G) IgG1, lambda; Alexa Fluor 647-labeled in single-step flow cytometry) VH: QKQLVESGGGLVQPGGSLTLTCTVSGFSLNKYYMGWFRQAPGKGLEWIGVISRSGDTYYSSWAKGRFTISKASTTVDLRITSPTTEDTATYFCARDASSPGFHGDRLDLWGQGTLVTVSS VL: SFVLTQPASVQVNLGQTVSLTCTADTLSRSYASWYQQKPGQAPVLLIYRDTSRPSGVPDRFSGSSSGNTATLTISGAQAGDEADYYCATSDGIGSNYLWVFGGGTQLTVTG", 0.088],
  ["HW-101 chimeric rabbit-human IgG1 LA/LA/PG (antibody, V domains shown, Fc-silenced (L234A/L235A/P329G) IgG1, lambda; Alexa Fluor 647-labeled in single-step flow cytometry; Cluster C-97) VH: QEQLVESGGRLVTPGTPLTLTCKASGFSLGKYDMSWVRQAPGKGLEWIGTIYAGSGSTWYASWAKGRFTISKTSTTVDLKMTSLTTEDTATYFCARDFLGVNSIWGPGTLVTISS VL: SFVLTQPASVQVNLGQTVSLTCTADTLSRSYASWYQQKPDQAPVLLIHRDTSRPSGVPDRFSGSNSGNTATLTISGAQAGDEADYYCATSDGSGSNFHFVFGGGTQLTVTG", 0.072],
  ["HW-1 chimeric rabbit-human IgG1 LA/LA/PG (antibody, V domains shown, Fc-silenced (L234A/L235A/P329G) IgG1, lambda; Alexa Fluor 647-labeled in single-step flow cytometry; Prototype of cluster C-1) VH: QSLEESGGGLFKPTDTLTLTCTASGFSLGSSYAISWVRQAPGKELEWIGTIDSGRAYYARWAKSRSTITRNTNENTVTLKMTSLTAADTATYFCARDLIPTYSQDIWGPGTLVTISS VL: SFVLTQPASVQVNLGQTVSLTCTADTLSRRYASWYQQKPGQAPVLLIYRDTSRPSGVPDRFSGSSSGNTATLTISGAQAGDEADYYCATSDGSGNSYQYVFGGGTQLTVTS", 0.078],
  ["HW-70 chimeric rabbit-human IgG1 LA/LA/PG (antibody, V domains shown, Fc-silenced (L234A/L235A/P329G) IgG1, lambda; Alexa Fluor 647-labeled in single-step flow cytometry; Cluster C-1) VH: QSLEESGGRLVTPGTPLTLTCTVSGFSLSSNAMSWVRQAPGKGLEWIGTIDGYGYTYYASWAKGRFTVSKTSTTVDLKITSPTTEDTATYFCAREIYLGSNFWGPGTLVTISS VL: SFVLTQPASVQVNLGQTVSLTCTADTLSRRYASWYQQKPGQAPVLLIYRDTSRPSGVPDRFSGSSSGNTATLTISGAQAGDEADYYCATADGSGSSYQFVFGGGTQLTVTG", 0.09],
  ["HW-56 chimeric rabbit-human IgG1 LA/LA/PG (antibody, V domains shown, Fc-silenced (L234A/L235A/P329G) IgG1, kappa; Alexa Fluor 647-labeled in single-step flow cytometry; Cluster C-45) VH: QSVKESEGGLFKPTDTLTLTCTASGFTVSTNAVTWVRQAPGNGLEYIGTIGRSGSAYFASWAKRRSTLTRDINLNTVTLKMTSLTAADTATYFCVRGSPGYRTAISIWGPGTLVTISS VL: AVMTQTPSSTSAAVEGTVTINCQASQSISNRLSWFQQKPGQPPKLLIYQASTLASGVPSRFKGSGSGTEFTLTISGVQREDAATYYCLGSYSSSDASFGGGTKLEIKR", 0.117],
  ["HW-97 chimeric rabbit-human IgG1 LA/LA/PG (antibody, V domains shown, Fc-silenced (L234A/L235A/P329G) IgG1, lambda; Alexa Fluor 647-labeled in single-step flow cytometry; Prototype of cluster C-97) VH: QKQLVESGGRLVTPGTPLTLTCTVTGIDLSSHGMSWVRQAPGKGLEWIGVIYPSGSTWYASWARGRFTISKTSTTVDLKMTSLTTEDTATHFCARGDVGGADNNIWGPGTLVTVSS VL: SFVLTQPASVQVDLGQTVSLTCTAETLSRSYASWYQQKPGQAPVLLIYRDTSRPSGVPDRFSGSSSGNTATLTISGAQAGDEADYYCATSDGSGSSYQYVFGGGTQLTVTG", 0.075]
]}

// sample HW-25 chimeric rabbit-human IgG1 LA/LA/PG (antibody, V domains shown, Fc-silenced (L234A/L235A/P329G) IgG1, lambda; Alexa Fluor 647-labeled in single-step flow cytometry; Cluster C-1) VH: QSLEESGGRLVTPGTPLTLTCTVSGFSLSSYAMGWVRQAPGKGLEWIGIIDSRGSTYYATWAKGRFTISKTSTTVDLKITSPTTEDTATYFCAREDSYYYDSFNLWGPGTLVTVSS VL: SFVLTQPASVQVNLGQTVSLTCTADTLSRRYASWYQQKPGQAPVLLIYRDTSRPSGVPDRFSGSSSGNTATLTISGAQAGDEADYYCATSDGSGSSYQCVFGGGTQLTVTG , its ELISA Absorbance (405 nm-570 nm) was 0.067
